Substrate: CC(=O)C=O
METHOD: purified protein
Assay type: biochemical, Arabidopsis thaliana
CONDITION_INFO: true substrate is the hemithioacetal of MGO and GSH (preformed 30 min; HTA concentration calculated with Kdiss 3.0 mM), 1.7 mM GSH, 0.5 mM Ni2+, 100 mM MOPS pH 7.0, 25 °C
OBSERVATION_TYPE: kcat/Km (M⁻¹ s⁻¹)
Reply with just the number (in M⁻¹ s⁻¹).

Data request, read-out kcat/Km, for GLXI;2 (Col-0 GLXI;2) (Arabidopsis thaliana) (protein, monomer; two domains, active site 2 (His89, Glu137, Gln150, Glu201)) MAEASDLLEWPKKDNRRFLHVVYRVGDLDRTIEFYTEVFGMKLLRKRDIPEEKYSNAFLGFGPETSNFVVELTYNYGVSSYDIGTGFGHFAISTQDVSKLVENVRAKGGNVTREPGPVKGGGSVIAFVKDPDGYTFELIQRGPTPEPFCQVMLRVGDLDRAIKFYEKALGMRLLRKIERPEYKYTIGMMGYAEEYESIVLELTYNYDVTEYTKGNAYAQIAIGTDDVYKSGEVIKIVNQELGGKITREAGPLPGLGTKIVSFLDPDGWKTVLVDNKDFLKELE
25300

Data origin: paper PMC12490080
